Data provenance is ChEMBL document CHEMBL4406807.

- method summary: Cmax in ICR mouse at 40 mg/kg, ig measured up to 48 hrs by LC-MS/MS analysis
- Assay type: ADME, organism-based
- Design: dose 40 mg/kg, route […]
- study conditions: in vivo, po
recorded endpoint: Cmax (ng/mL)
Expressed in ng/mL, but write only the number.

Entry "CNC(=O)C[C@@H]1C[C@@H](c2ccc(F)c(F)c2)[C@H](NC(=O)c2cc(-c3c(Cl)cnn3C)c(Cl)o2)CN1" has what Cmax? 3620

* * *

- method summary: AUC (0 to infinity) in ICR mouse at 40 mg/kg, ig measured up to 48 hrs by LC-MS/MS analysis
- Format: ADME, organism-based
- Parameters: dose 40 mg/kg, time infinity, route […]
- study conditions: in vivo, po
recorded endpoint: AUC(0-inf)
Provide a numeric answer, followed by its unit.

Entry "CNC(=O)C[C@@H]1C[C@@H](c2ccc(F)c(F)c2)[C@H](NC(=O)c2cc(-c3c(Cl)cnn3C)c(Cl)o2)CN1" has what AUC(0-inf)? 21200 ng·h/mL

* * *

- System: HCT-116
- method summary: cells
- study conditions: Homo sapiens, HCT-116, 72 h
Field 'label' (enum: criterion met / criterion not met). Set to criterion met when IC50 is strictly under 2000 nM; else criterion not met.

Cn1nccc1-c1ccc(C(=O)N[C@@H]2CNCC[C@H]2c2ccc(F)c(F)c2)cc1    criterion not met
Cn1ncc(Cl)c1-c1cc(C(=O)N[C@@H]2CN[C@H](CCNS(C)(=O)=O)C[C@H]2c2ccc(F)c(F)c2)oc1Cl    criterion met
Cn1cc(-c2ccc(C(=O)N[C@@H]3CNCC[C@H]3c3ccc(Cl)cc3)o2)cn1    criterion not met
Cn1ncc(Cl)c1-c1cc(C(=O)N[C@@H]2CN[C@H](CC(O)CO)C[C@H]2c2ccc(F)c(F)c2)oc1Cl (stereo partly drawn)    criterion met
Cn1ncc(Cl)c1-c1cc(C(=O)N[C@@H]2CNCC[C@H]2c2ccc(F)c(F)c2)sc1Cl    criterion not met

Problem: For the compound "Cn1ncc(Cl)c1-c1cc(C(=O)N[C@@H]2CN[C@H](CCO)C[C@H]2c2ccc(F)c(F)c2)oc1Cl" , is IC50 under 2000 nM? criterion met

Problem: For the compound "Cn1ncc(Cl)c1-c1cc(C(=O)N[C@@H]2CN[C@H](CCCO)C[C@H]2c2ccc(Cl)c(Cl)c2)oc1Cl" , is IC50 under 2000 nM? criterion met

Problem: For the compound "CN(C)CC[C@@H]1C[C@@H](c2ccc(Cl)c(Cl)c2)[C@H](NC(=O)c2cc(-c3c(Cl)cnn3C)c(Cl)o2)CN1" , is IC50 under 2000 nM? criterion met

Problem: For the compound "Cn1nccc1-c1ccc(C(=O)N[C@@H]2CNCC[C@H]2c2ccc(Cl)cc2)o1" , is IC50 under 2000 nM? criterion not met

Problem: For the compound "Cn1ncc(Cl)c1-c1ccc(C(=O)N[C@@H]2CNCC[C@H]2c2ccc(F)c(F)c2)cc1" , is IC50 under 2000 nM? criterion not met

Problem: For the compound NC1(C(=O)N[C@@H](CCO)c2ccc(Cl)cc2)CCN(c2nc[nH]c3nccc2-3)CC1 [CAPIVASERTIB] , is IC50 under 2000 nM? criterion not met

Problem: For the compound "Cn1nccc1-c1coc(C(=O)N[C@@H]2CNCC[C@H]2c2ccc(Cl)cc2)c1" , is IC50 under 2000 nM? criterion met

Problem: For the compound "Cn1ncc(Br)c1-c1coc(C(=O)N[C@@H]2CNCC[C@H]2c2ccc(Cl)cc2)c1" , is IC50 under 2000 nM? criterion not met
